Target: Mitogen-activated protein kinase 1 (Homo sapiens)
Sequence (P28482 whole entry): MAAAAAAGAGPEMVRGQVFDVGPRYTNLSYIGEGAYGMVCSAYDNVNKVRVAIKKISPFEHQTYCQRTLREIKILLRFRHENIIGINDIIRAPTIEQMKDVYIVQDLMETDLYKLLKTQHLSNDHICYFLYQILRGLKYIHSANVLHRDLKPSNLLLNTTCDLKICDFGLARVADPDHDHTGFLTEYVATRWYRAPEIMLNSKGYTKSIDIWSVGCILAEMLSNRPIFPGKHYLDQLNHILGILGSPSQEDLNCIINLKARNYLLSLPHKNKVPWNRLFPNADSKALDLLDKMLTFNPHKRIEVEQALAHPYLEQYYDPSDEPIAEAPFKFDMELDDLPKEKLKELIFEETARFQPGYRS
Test: Inhibition of ERK2 (unknown origin) incubated for 60 mins by luminescence based ADP-Glo kinase assay
Lab note: cut-off is 0.4 µM. Strictly less in IC50 is criterion met. Exactly 0.4 µM or more is criterion not met.

Example results:
* Cc1cccc(C[n+]2cn(C[C@H](Cc3ccccc3)NC(=O)Nc3cc(C(F)(F)F)cc(C(F)(F)F)c3)c3ccccc32)c1 | criterion met
* CC[C@@H](C)[C@@H](Cn1cc(C(F)(F)F)[n+](Cc2ccccc2)c1)NC(=O)Nc1cc(C(F)(F)F)cc(C(F)(F)F)c1 | criterion not met
* O=C(Nc1cc(C(F)(F)F)cc(C(F)(F)F)c1)N[C@@H](Cc1ccccc1)Cn1c[n+](Cc2cccc(OCc3ccccc3)c2)c2ccccc21 | criterion met
* Cc1n(C[C@H](Cc2ccccc2)NC(=O)Nc2cc(C(F)(F)F)cc(C(F)(F)F)c2)cc[n+]1Cc1ccccc1 | criterion met
* CC[C@@H](C)[C@@H](Cn1c[n+](Cc2ccccc2)c2ccccc21)NC(=O)Nc1cc(C(F)(F)F)cc(C(F)(F)F)c1 | criterion met
* CC(=O)N[C@@H](Cc1ccccc1)Cn1c[n+](Cc2cccc3ccccc23)c2ccccc21 | criterion not met

Kindly consider the entry below.
Find out if reported IC50 for `O=C(Nc1ccc(Cl)c(Cl)c1)N[C@@H](Cc1ccccc1)Cn1c[n+](Cc2ccc3ccccc3c2)c2ccccc21` is less than 0.4 µM criterion met

###

Test: Half life in Sprague-Dawley rat at 10 mg/kg, po by LC-MS/MS analysis
Type: ADME, organism-based
Conditions: in vivo
Property Measured: half-life

Memo: `O=C(Nc1cc(C(F)(F)F)cc(C(F)(F)F)c1)N[C@@H](Cc1ccccc1)Cn1c[n+](Cc2ccc3ccccc3c2)c2ccccc21.[Br-]` , reported half-life: 2.51 h

###

Molecular target: Mitogen-activated protein kinase 3 (Homo sapiens, UniProt P27361)
Sequence (P27361 whole entry): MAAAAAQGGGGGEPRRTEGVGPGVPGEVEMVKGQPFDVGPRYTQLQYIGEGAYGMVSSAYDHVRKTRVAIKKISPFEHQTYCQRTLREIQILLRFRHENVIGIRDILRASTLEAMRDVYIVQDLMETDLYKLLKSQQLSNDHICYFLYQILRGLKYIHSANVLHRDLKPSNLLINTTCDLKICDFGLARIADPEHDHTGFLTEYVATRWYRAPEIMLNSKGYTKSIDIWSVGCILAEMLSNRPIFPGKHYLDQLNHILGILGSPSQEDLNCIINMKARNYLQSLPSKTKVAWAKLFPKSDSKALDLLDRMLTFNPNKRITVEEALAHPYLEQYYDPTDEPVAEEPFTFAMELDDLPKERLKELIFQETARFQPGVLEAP
Assay: Inhibition of ERK1 (unknown origin) incubated for 60 mins by luminescence based ADP-Glo kinase assay
pIC50: −log10 of the molar value.
Answer each item with its documented pIC50.

Example results:
- O=C(Nc1cc(C(F)(F)F)cc(C(F)(F)F)c1)N[C@@H](Cc1ccccc1)Cn1c[n+](Cc2ccc3ccccc3c2)c2ccccc21.[Br-]: 7.04
- O=C(N[C@@H](Cc1ccccc1)Cn1c[n+](Cc2cccc3ccccc23)c2ccccc21)c1ccccc1: < 5.00
- CC(=O)N[C@@H](Cc1ccccc1)Cn1cnc2ccccc21: < 5.00
- O=C(N[C@@H](Cc1ccccc1)Cn1cnc2ccccc21)c1ccccc1: < 5.00

API: the following record is the query input.
The reported pIC50 value, Mitogen-activated protein kinase 3 (Homo sapiens, UniProt P27361), for `CC(=O)N[C@@H](Cc1ccccc1)Cn1c[n+](Cc2cccc3ccccc23)c2ccccc21` reads < 5.00

###

Assay: AUC (0 to t) in Sprague-Dawley rat at 10 mg/kg, po by LC-MS/MS analysis
Type: ADME, organism-based
Conditions: in vivo
Property Measured: AUC(0-t)
A bare number is not enough; add the unit after it.

Sure, the documented AUC(0-t) for `O=C(Nc1cc(C(F)(F)F)cc(C(F)(F)F)c1)N[C@@H](Cc1ccccc1)Cn1c[n+](Cc2ccc3ccccc3c2)c2ccccc21.[Br-]` is 3910 ng·h/mL

###

Test system: A-375
Assay: Antiproliferative activity against human A-375 cells expressing B-Raf V600E mutant
Assay type: functional, cell-based
Property Measured: IC50 (nM)
Give bare numbers, in nM.

// recorded IC50 for `O=C(Nc1cc(C(F)(F)F)cc(C(F)(F)F)c1)N[C@@H](Cc1ccccc1)Cn1c[n+](Cc2ccc3ccccc3c2)c2ccccc21.[Br-]` : 750

###

Test system: HCC1937
Assay: Antiproliferative activity against human HCC1937 cells incubated for 48 hrs by CCK-8 method
Type: functional, cell-based
Conditions: HCC1937, 48 h
So I've got a bunch of compounds here, and I need their IC50 values.
Answers are plain numbers, in µM.

In the examples that follow, each entry is paired with its recorded IC50.
* O=c1[nH]cc(F)c(=O)[nH]1 | 5.67
* O=C(Nc1cc(C(F)(F)F)cc(C(F)(F)F)c1)N[C@@H](Cc1ccccc1)Cn1c[n+](Cc2ccccc2F)c2ccccc21 | 1.77
* O=C(Nc1cc(C(F)(F)F)cc(C(F)(F)F)c1)N[C@@H](Cc1ccccc1)Cn1c[n+](Cc2ccc(Br)cc2)c2ccccc21 | 1.82
* O=C(Nc1ccc(Br)cc1)N[C@@H](Cc1ccccc1)Cn1c[n+](Cc2ccc3ccccc3c2)c2ccccc21 | 6.56
* Cc1ccc(NC(=O)N[C@@H](Cc2ccccc2)Cn2c[n+](Cc3ccc4ccccc4c3)c3ccccc32)cc1 | 3.62

Lab note: each compound below needs its IC50 filled in.
1. Cc1ccc(C[n+]2cn(C[C@H](Cc3ccccc3)NC(=O)Nc3cc(C(F)(F)F)cc(C(F)(F)F)c3)c3ccccc32)cc1
2. O=C(Nc1cc(C(F)(F)F)cc(C(F)(F)F)c1)N[C@@H](Cc1ccccc1)Cn1c[n+](Cc2ccccc2C(F)(F)F)c2ccccc21
3. N#Cc1ccccc1C[n+]1cn(C[C@H](Cc2ccccc2)NC(=O)Nc2cc(C(F)(F)F)cc(C(F)(F)F)c2)c2ccccc21

[1.49, 2.96, 5.6]

###

System: MCF7
Assay: Growth inhibition of human MCF7 cells at 5 uM incubated for 48 hrs by CCK-8 method relative to control
Type: functional
Details: read-out: GI
Property Measured: inhibition of growth at 5 µM (%)
Give bare numbers, in %.

Some molecules with known inhibition of growth at 5 µM results, for comparison:
- CC[C@@H](C)[C@@H](Cn1cc[n+](Cc2ccccc2)c1C)NC(=O)Nc1cc(C(F)(F)F)cc(C(F)(F)F)c1: 64
- O=C(Nc1cc(C(F)(F)F)cc(C(F)(F)F)c1)N[C@@H](Cc1ccccc1)Cn1c[n+](Cc2ccccc2)c2ccccc21: 99.5
- Cc1n(C[C@@H](NC(=O)Nc2cc(C(F)(F)F)cc(C(F)(F)F)c2)C(C)C)cc[n+]1Cc1ccccc1: 7.92
- CC[C@@H](C)[C@@H](Cn1c[n+](Cc2ccccc2)c2ccccc21)NC(=O)Nc1cc(C(F)(F)F)cc(C(F)(F)F)c1: 100
- CC[C@@H](C)[C@@H](Cn1cc[n+](Cc2ccccc2)c1)NC(=O)Nc1cc(C(F)(F)F)cc(C(F)(F)F)c1: 86.9
- O=C(Nc1cc(C(F)(F)F)cc(C(F)(F)F)c1)N[C@@H](Cc1ccccc1)Cn1cc(C(F)(F)F)[n+](Cc2ccccc2)c1: 19.4

Next molecule, please.
Lab note: `CC(C)[C@@H](Cn1c[n+](Cc2ccccc2)c2ccccc21)NC(=O)Nc1cc(C(F)(F)F)cc(C(F)(F)F)c1` gave inhibition of growth at 5 µM of 91.9

###

Tested on: HCC1937
Assay: Antiproliferative activity against human HCC1937 cells incubated for 48 hrs by CCK-8 method
Assay type: functional, cell-based
Settings: HCC1937, 48 h
Property Measured: pIC50
Answers are plain numbers, as −log10 of the molar value.

- Cc1ccccc1C[n+]1cn(C[C@H](Cc2ccccc2)NC(=O)Nc2cc(C(F)(F)F)cc(C(F)(F)F)c2)c2ccccc21: 5.56
- O=C(Nc1cc(C(F)(F)F)cc(C(F)(F)F)c1)N[C@@H](Cc1ccccc1)Cn1c[n+](Cc2cccc(Cl)c2)c2ccccc21: 5.47
- O=C(Nc1cc(C(F)(F)F)cc(C(F)(F)F)c1)N[C@@H](Cc1ccccc1)Cn1c[n+](Cc2cccc(OCc3ccccc3)c2)c2ccccc21: 5.50
- O=C(Nc1ccc(F)cc1)N[C@@H](Cc1ccccc1)Cn1c[n+](Cc2ccc3ccccc3c2)c2ccccc21: 5.49
- O=C(Nc1cc(C(F)(F)F)cc(C(F)(F)F)c1)N[C@@H](Cc1ccccc1)Cn1c[n+](Cc2ccc3cccnc3c2)c2ccccc21: 5.95

Would you mind listing pIC50 for each of the following compounds?
1. O=C(Nc1cc(C(F)(F)F)cc(C(F)(F)F)c1)N[C@@H](Cc1ccccc1)Cn1c[n+](Cc2cc(Cl)ccc2Cl)c2ccccc21
2. O=C(Nc1cc(C(F)(F)F)cc(C(F)(F)F)c1)N[C@@H](Cc1ccccc1)Cn1c[n+](Cc2cccc(C(F)(F)F)c2)c2ccccc21
3. N#Cc1cccc(C[n+]2cn(C[C@H](Cc3ccccc3)NC(=O)Nc3cc(C(F)(F)F)cc(C(F)(F)F)c3)c3ccccc32)c1
4. O=C(Nc1cc(C(F)(F)F)cc(C(F)(F)F)c1)N[C@@H](Cc1ccccc1)Cn1c[n+](C/C=C/c2ccccc2)c2ccccc21

5.69
5.46
5.22
5.62

I'm hoping you can list pIC50 for every compound here, please.
1. Cc1cccc(C[n+]2cn(C[C@H](Cc3ccccc3)NC(=O)Nc3cc(C(F)(F)F)cc(C(F)(F)F)c3)c3ccccc32)c1
2. O=C(Nc1cc(C(F)(F)F)cc(C(F)(F)F)c1)N[C@@H](Cc1ccccc1)Cn1c[n+](Cc2ccc(Cl)cc2)c2ccccc21
3. N#Cc1ccc(C[n+]2cn(C[C@H](Cc3ccccc3)NC(=O)Nc3cc(C(F)(F)F)cc(C(F)(F)F)c3)c3ccccc32)cc1
4. O=C(Nc1cc(C(F)(F)F)cc(C(F)(F)F)c1)N[C@@H](Cc1ccccc1)Cn1c[n+](Cc2cccc(F)c2)c2ccccc21
5. COc1cccc(C[n+]2cn(C[C@H](Cc3ccccc3)NC(=O)Nc3cc(C(F)(F)F)cc(C(F)(F)F)c3)c3ccccc32)c1
6. O=C(Nc1ccc(Cl)cc1)N[C@@H](Cc1ccccc1)Cn1c[n+](Cc2ccc3ccccc3c2)c2ccccc21
7. O=C(Nc1cc(C(F)(F)F)cc(C(F)(F)F)c1)N[C@@H](Cc1ccccc1)Cn1c[n+](Cc2c(Cl)cccc2Cl)c2ccccc21

1. 5.43
2. 5.34
3. 5.42
4. 5.50
5. 5.43
6. 5.77
7. 5.67
